# system: Monoglyceride lipase (Mus musculus, UniProt O35678)
# protocol.text: Inhibition of FP-rhodamine probe binding to MGLL in mouse brain membrane proteome preincubated for 1 hr followed by FP-rhodamine addition and measured after 30 mins by SDS-PAGE based fluorescence assay
Binned IC50; ranges: bin A (below 0.2 µM), bin B (0.2 µM to below 4 µM), bin C (4 µM or more)

Before answering, review these 3 worked examples.
# chem.smiles, assigned.class
data = [
    ("CN(CCN(C)C(=O)n1cc(C#N)cn1)Cc1ccc(OCc2ccccc2)cc1", "bin B"),
    ("Cc1cnn(C(=O)NCc2ccc(OC(c3ccccc3)c3ccccc3)cc2)c1", "bin C"),
    ("O=C(NCc1ccc(OCc2ccccc2)cc1)n1cccn1", "bin B"),
]

[ask] Sort into band: `O=C(N1CCN(C(c2ccc3ccccc3c2)c2ccc3ccccc3c2)CC1)n1cccn1`
[reply] bin B

[ask] Can you check `Cc1cnn(C(=O)N2CCCN(Cc3ccc(OCc4ccccc4)cc3)CC2)c1` next?
[reply] bin C

[ask] Can you check `O=C(N1CCCN(Cc2ccc(OCc3ccccc3)cc2)CC1)n1cccn1` next?
[reply] bin C

[ask] Can you check `N#Cc1cnn(C(=O)N2CCN(Cc3ccc4ccccc4c3)CC2)c1` next?
[reply] bin A

[ask] Can you check `O=C(NCc1ccc(OC(c2ccccc2)c2ccccc2)cc1)n1cccn1` next?
[reply] bin C

[ask] Can you check `Cc1cnn(C(=O)N(C)CCN(C)C(c2ccc(OCc3ccccc3)cc2)c2ccc(OCc3ccccc3)cc2)c1` next?
[reply] bin C

[ask] Can you check `N#Cc1cnn(C(=O)N2CCN(C(c3ccc4ccccc4c3)c3ccc4ccccc4c3)CC2)c1` next?
[reply] bin A

====

We begin with a simple list: items and their reported IC50.
# system: Fatty-acid amide hydrolase 1 (Mus musculus, UniProt O08914)
# Sequence (O08914 whole entry): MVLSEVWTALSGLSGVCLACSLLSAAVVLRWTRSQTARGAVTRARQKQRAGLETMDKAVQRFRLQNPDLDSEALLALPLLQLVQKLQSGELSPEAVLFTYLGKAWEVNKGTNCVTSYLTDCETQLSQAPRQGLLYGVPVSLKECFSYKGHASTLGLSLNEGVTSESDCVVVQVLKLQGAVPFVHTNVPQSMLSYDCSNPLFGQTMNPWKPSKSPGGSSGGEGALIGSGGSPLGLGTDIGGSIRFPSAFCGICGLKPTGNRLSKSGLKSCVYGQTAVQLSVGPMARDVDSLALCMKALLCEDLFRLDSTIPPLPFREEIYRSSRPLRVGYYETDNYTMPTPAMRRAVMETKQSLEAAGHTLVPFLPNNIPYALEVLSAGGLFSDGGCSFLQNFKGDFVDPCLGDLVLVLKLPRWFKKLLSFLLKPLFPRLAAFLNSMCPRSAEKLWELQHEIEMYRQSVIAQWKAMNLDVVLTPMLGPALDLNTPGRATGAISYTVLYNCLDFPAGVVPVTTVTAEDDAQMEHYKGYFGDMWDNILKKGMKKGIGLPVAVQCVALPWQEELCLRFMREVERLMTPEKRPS
# protocol.text: Inhibition of FP-rhodamine probe binding to FAAH in mouse brain membrane proteome preincubated for 1 hr followed by FP-rhodamine addition and measured after 30 mins by SDS-PAGE based fluorescence assay
Your answer should be a plain number; it is taken to be in nM.

As a guide, the following entries are already answered.
# chem.smiles, unit.annotation, val
data = [
    ("Cc1cnn(C(=O)N2CCN(Cc3ccc4ccccc4c3)CC2)c1", "nM", 960),
    ("O=C(N1CCCCC1)n1cccn1", "nM", 1000),
    ("O=C(N1CCN(Cc2ccc(OCc3ccccc3)cc2)CC1)n1cccn1", "nM", 60),
    ("N#Cc1cnn(C(=O)NCc2ccc(OCc3ccccc3)cc2)c1", "nM", 60),
    ("O=C(N1CCCN(Cc2ccc(OCc3ccccc3)cc2)CC1)n1cccn1", "nM", 450),
    ("Cc1cnn(C(=O)N2CCN(Cc3ccc(OCc4ccccc4)cc3)CC2)c1", "nM", 650),
    ("N#Cc1cnn(C(=O)N2CCN(C(c3ccc(OCc4ccccc4)cc3)c3ccc(OCc4ccccc4)cc3)CC2)c1", "nM", 790000),
    ("O=C(NCc1ccc(OCc2ccccc2)cc1)n1cccn1", "nM", 800),
]

Let's switch to this molecule now.
[ask] Value wanted: IC50 (Fatty-acid amide hydrolase 1 (Mus musculus, UniProt O08914)) of entry `CN(CCN(C)C(=O)n1cc(C#N)cn1)Cc1cccc(OCc2ccccc2)c1`
[reply] 190

====

# system: Monoglyceride lipase (Mus musculus, UniProt O35678)
# Sequence (O35678 whole entry): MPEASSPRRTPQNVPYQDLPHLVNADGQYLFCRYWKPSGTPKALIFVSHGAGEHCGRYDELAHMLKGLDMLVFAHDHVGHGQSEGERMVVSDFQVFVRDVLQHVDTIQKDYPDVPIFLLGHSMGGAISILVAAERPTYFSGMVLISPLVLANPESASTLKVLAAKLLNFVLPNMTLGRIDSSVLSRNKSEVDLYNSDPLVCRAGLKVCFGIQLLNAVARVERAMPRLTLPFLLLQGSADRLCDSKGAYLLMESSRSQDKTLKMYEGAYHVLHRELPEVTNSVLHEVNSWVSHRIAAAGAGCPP
# protocol.text: Inhibition of FP-rhodamine probe binding to MGLL in mouse brain membrane proteome preincubated for 1 hr followed by FP-rhodamine addition and measured after 30 mins by SDS-PAGE based fluorescence assay
measured.property: IC50

As a guide, the following entries are already answered.
# chem.smiles, val
measured = [
    ("CN(CCN(C)C(c1ccc(OCc2ccccc2)cc1)c1ccc(OCc2ccccc2)cc1)C(=O)n1cc(C#N)cn1", "32 µM"),
    ("CN(CCN(C)C(=O)n1cc(C#N)cn1)Cc1cccc(OCc2ccccc2)c1", "0.59 µM"),
    ("CN(CCN(C)C(=O)n1cccn1)Cc1cccc(OCc2ccccc2)c1", "4.6 µM"),
    ("CN(CCN(C)C(c1ccc(OCc2ccccc2)cc1)c1ccc(OCc2ccccc2)cc1)C(=O)n1cccn1", "> 1000 µM"),
]

[ask] Record request: IC50 value, item `Cc1cnn(C(=O)NCc2ccc(OCc3ccccc3)cc2)c1`
[reply] 1 µM

[ask] Can you check `N#Cc1cnn(C(=O)NCc2ccc(OC(c3ccccc3)c3ccccc3)cc2)c1` next?
[reply] > 100 µM

[ask] Can you check `N#Cc1cnn(C(=O)N2CCCCC2)c1` next?
[reply] 0.12 µM

[ask] Can you check `N#Cc1cnn(C(=O)N2CCN(C(c3ccc(OCc4ccccc4)cc3)c3ccc(OCc4ccccc4)cc3)CC2)c1` next?
[reply] 0.02 µM

[ask] Can you check `O=C(N1CCN(Cc2ccc3ccccc3c2)CC1)n1cccn1` next?
[reply] 0.96 µM

[ask] Can you check `CN(CCN(C)C(=O)n1cccn1)Cc1ccc(OCc2ccccc2)cc1` next?
[reply] 0.66 µM

[ask] Can you check `O=C(N1CCCCC1)n1cccn1` next?
[reply] 6.6 µM

[ask] Can you check `Cc1cnn(C(=O)N2CCN(C(c3ccc(OCc4ccccc4)cc3)c3ccc(OCc4ccccc4)cc3)CC2)c1` next?
[reply] 2.1 µM

[ask] Can you check `N#Cc1cnn(C(=O)N2CCCN(Cc3ccc(OCc4ccccc4)cc3)CC2)c1` next?
[reply] 10 µM

[ask] Can you check `Cc1cnn(C(=O)N(C)CCN(C)Cc2ccc(OCc3ccccc3)cc2)c1` next?
[reply] 1.2 µM

[ask] Can you check `O=C(N1CCN(C(c2ccc(OCc3ccccc3)cc2)c2ccc(OCc3ccccc3)cc2)CC1)n1cccn1` next?
[reply] 3.9 µM

[ask] Can you check `N#Cc1cnn(C(=O)N2CCN(Cc3ccc(OCc4ccccc4)cc3)CC2)c1` next?
[reply] < 0.01 µM
